Reference source for all entries: ChEMBL document CHEMBL4689842

# Test system: Fibroblast
# protocol.summary: Multiplex assay against human fibroblast
# Assay type: toxicity, cell-based
# measurement.setup: 24 h, 1 µM, compound concentration 1 uM, replicate 2
measurement.kind: Population Pyknosed Nuclei (%)
The reply should contain only the number, in %.

// known answers, use as guide
COc1cc(Nc2nccc(-c3cnn4nc(OC)ccc34)n2)cc(C(F)(F)F)c1 ... 12
O=c1cc(N2CCOCC2)oc2c(-c3cccc4c3sc3ccccc34)cccc12 ... 6
Cc1c[nH]c2nccc(Oc3c(F)cc(Nc4cc(Cl)nc(N)n4)cc3F)c12 ... 20

Quick one: Population Pyknosed Nuclei (%) for CC(C)CC(=O)Nc1[nH]nc2c1CN(C(=O)C1CCN(C)CC1)C2(C)C ? 14

Quick one: Population Pyknosed Nuclei (%) for CCCSc1nc(N[C@@H]2C[C@H]2c2ccc(F)c(F)c2)c2nnn([C@@H]3C[C@H](OCCO)[C@@H](O)[C@H]3O)c2n1 ? 8

----------
# System: Fibroblast
# protocol.summary: Multiplex assay against human fibroblast
# Assay type: toxicity, cell-based
# measurement.setup: 48 h, 10 µM, compound concentration 10 uM, replicate 1
Class definitions on Population Tubulin-Different-Phenotype (%): bin 0 = under 50%, bin 1 = from 50% up to 80%, bin 2 = 80% and over

Below, 5 molecules whose answers are already recorded.
CC(C)NC(=O)N1CC[C@H](NC2=Nc3cc(F)ccc3N(CC(F)F)c3ccc(Cl)cc32)C1 ... bin 2
COc1cc2ncn(-c3cc(OCc4ccccc4C(F)(F)F)c(C(N)=O)s3)c2cc1OC [GW843682X] ... bin 2
CC1=C(C(=O)Nc2cc3cn[nH]c3cc2F)C(c2ccc(C(F)(F)F)cc2)CC(=O)N1 (configuration not stated) ... bin 0
COc1ccc(-c2ccc3ncc4c(c3c2)n(-c2ccc(N3CCNCC3)c(C(F)(F)F)c2)c(=O)n4C)cn1.O=C(O)/C=C\C(=O)O ... bin 1
O=C(c1cc2c(cc1F)OC(c1ccc(F)cc1)(c1ccc(Cl)cc1Cl)O2)N1CCOCC1 (configuration not stated) ... bin 0

Quick check: band for COc1ccccc1CN[C@H]1C2CCN(CC2)[C@H]1C(c1ccccc1)c1ccccc1 bin 1

Quick check: band for C[C@]12CC[C@@H]3c4ccc(O)cc4CC[C@H]3[C@@H]1CC[C@@H]2O bin 0

Quick check: band for COc1cc(Nc2nccc(-c3cnn4nc(OC)ccc34)n2)cc(C(F)(F)F)c1 bin 1

Quick check: band for COC(=O)C1=C(C)NC(C)=C(C(=O)OCCCN2CCC(c3ccccc3)(c3ccccc3)CC2)[C@H]1c1cccc([N+](=O)[O-])c1 bin 0

Quick check: band for C#Cc1cccc(Nc2ncnc3cc(OCCOC)c(OCCOC)cc23)c1 bin 2

Quick check: band for CN1CCN(Cc2ccc(Nc3ncc(Cl)c(Nc4ccccc4S(=O)(=O)N(C)C)n3)cc2)CC1 bin 1

Quick check: band for CCc1ccc(OCc2ccccc2C(=O)Nc2ccc3nc(C)cc(N)c3c2)cc1.Cl bin 2

Quick check: band for CC(C)Oc1ccccc1C(=O)Nc1ccccc1C(=O)Nc1cccc(S(=O)(=O)C(F)(F)F)c1 bin 0

Quick check: band for CC(C)(C)NC[C@H](O)COc1nsnc1N1CCOCC1 bin 0

----------
# Tested on: Fibroblast
# protocol.summary: Multiplex assay against human fibroblast
# Assay type: toxicity, cell-based
# measurement.setup: 12 h, 10 µM, compound concentration 10 uM, replicate 1
The following compounds are listed with their measured Population Apoptotic (%) values.
The reply should contain only the number, in %.

Quick one: Population Apoptotic (%) for COc1ccc(-c2ccc3ncc4c(c3c2)n(-c2ccc(N3CCNCC3)c(C(F)(F)F)c2)c(=O)n4C)cn1.O=C(O)/C=C\C(=O)O ? 62

Quick one: Population Apoptotic (%) for CC(C)Oc1ccccc1C(=O)Nc1ccccc1C(=O)Nc1cccc(S(=O)(=O)C(F)(F)F)c1 ? 61

Quick one: Population Apoptotic (%) for O=C(c1cc2c(cc1F)OC(c1ccc(F)cc1)(c1ccc(Cl)cc1Cl)O2)N1CCOCC1 (stereo not given) ? 71

Quick one: Population Apoptotic (%) for COc1cc2ncn(-c3cc(OCc4ccccc4C(F)(F)F)c(C(N)=O)s3)c2cc1OC [GW843682X] ? 54

Quick one: Population Apoptotic (%) for CC(C)NC(=O)N1CC[C@H](NC2=Nc3cc(F)ccc3N(CC(F)F)c3ccc(Cl)cc32)C1 ? 70

Quick one: Population Apoptotic (%) for CCc1ccc(OCc2ccccc2C(=O)Nc2ccc3nc(C)cc(N)c3c2)cc1.Cl ? 26

Quick one: Population Apoptotic (%) for Cc1c[nH]c2nccc(Oc3c(F)cc(Nc4cc(Cl)nc(N)n4)cc3F)c12 ? 66

Quick one: Population Apoptotic (%) for O=c1[nH]c2ccccc2n1C1CCN(Cc2ccc(-c3[nH]c4cc5ncnc5cc4nc3-c3ccccc3)cc2)CC1 ? 67

Quick one: Population Apoptotic (%) for O=c1cc(N2CCOCC2)oc2c(-c3cccc4c3sc3ccccc34)cccc12 ? 61

Quick one: Population Apoptotic (%) for Cc1ccc2c(c1)c1c(n2CCc2ccc(C)nc2)CCN(C)C1 [LATREPIRDINE] ? 55

Quick one: Population Apoptotic (%) for COc1cc(Nc2nccc(-c3cnn4nc(OC)ccc34)n2)cc(C(F)(F)F)c1 ? 57

Quick one: Population Apoptotic (%) for Cc1nc(N2CC[C@H](O)C2)ncc1-c1cc(C(F)(F)F)cc2[nH]ncc12 ? 66

----------
# System: Fibroblast
# protocol.summary: Incucyte cell viability with human fibroblast; also: filed as whole numbers so only -1 and 0 and 1 occur
# Format: toxicity, cell-based
# measurement.setup: 0 h, 10 µM, compound concentration 10 uM, replicate number 2, timepoint 0 hours
The following molecules are listed with their measured Growth Rate values.
Simply state the number, no unit and no words.

CC(C)N(CCCNC(=O)Nc1ccc(C(C)(C)C)cc1)C[C@H]1O[C@@H](n2cc(Br)c3c(N)ncnc32)[C@H](O)[C@@H]1O ... 0
COc1ccc(S(=O)(=O)N2c3ccc(Cl)cc3[C@](O)(c3ccccc3Cl)[C@@H]2C(=O)N2CCC[C@H]2C(N)=O)cc1OC ... 1
O=C(NCc1ncc(C(F)(F)F)cc1Cl)c1ccc2c(c1)C1(CCS(=O)(=O)CC1)[C@@H](C1CC1)N2S(=O)(=O)c1ccc(F)cc1 ... 1
O=C(Cc1ccccc1)Nc1nc2ccc(Cl)cc2c2nc(-c3ccco3)nn12 ... 1
CO[C@@H](C)c1c(Nc2ccc([C@H](N(C)C(=O)C3CCS(=O)(=O)CC3)C(F)(F)F)cc2)cnc2cc(Cl)nn12 ... 0

Request - read-out Growth Rate | tested on Fibroblast | molecule CNC(=O)Nc1ccc(-c2nc(N3CC4CCC(C3)O4)c3cnn(C4CCC5(CC4)OCCO5)c3n2)cc1 0

Request - read-out Growth Rate | tested on Fibroblast | molecule CN(c1ccccc1CNc1nc(Nc2ccc3c(c2)CC(=O)N3)ncc1C(F)(F)F)S(C)(=O)=O 0

----------
The following compounds are listed with their measured Population Normal (%) values.
# Tested on: Fibroblast
# protocol.summary: Multiplex assay against human fibroblast
# Type: toxicity, cell-based
# measurement.setup: 48 h, 10 µM, compound concentration 10 uM, replicate 1
The reply should contain only the number, in %.

CCCSc1nc(N[C@@H]2C[C@H]2c2ccc(F)c(F)c2)c2nnn([C@@H]3C[C@H](OCCO)[C@@H](O)[C@H]3O)c2n1 [TICAGRELOR] ... 79

Quick one: Population Normal (%) for CCc1nn(CCCN2CCN(c3cccc(Cl)c3)CC2)c(=O)n1CCOc1ccccc1.Cl [NEFAZODONE HYDROCHLORIDE] ? 65

----------
# System: Fibroblast
# protocol.summary: Multiplex assay against human fibroblast
# Assay type: toxicity, cell-based
# measurement.setup: 12 h, 1 µM, compound concentration 1 uM, replicate 2
The following compounds are listed with their measured Population Mitochondria Different-Phenotype (%) values.
The reply should contain only the number, in %.

// known answers, use as guide
O=c1cc(N2CCOCC2)oc2c(-c3cccc4c3sc3ccccc34)cccc12 ... 6
COc1cc(Nc2nccc(-c3cnn4nc(OC)ccc34)n2)cc(C(F)(F)F)c1 ... 16
CNC(=O)Nc1ccc2c(c1)[C@@]1(CC2)OC(=O)N(CC(=O)N(Cc2ccc(F)cc2)[C@@H](C)C(F)(F)F)C1=O [A-486] ... 8

Request - read-out Population Mitochondria Different-Phenotype (%) | tested on Fibroblast | compound CCc1nn(CCCN2CCN(c3cccc(Cl)c3)CC2)c(=O)n1CCOc1ccccc1.Cl [NEFAZODONE HYDROCHLORIDE] 9

----------
The following compounds are listed with their measured Population Pyknosed Nuclei (%) values.
# System: HEK-293T
# protocol.summary: Multiplex assay against HEK293T
# Type: toxicity, cell-based
# measurement.setup: human, 12 h, 10 µM, compound concentration 10 uM, replicate 1
The reply should contain only the number, in %.

// known answers, use as guide
CC(C)CC(=O)Nc1[nH]nc2c1CN(C(=O)C1CCN(C)CC1)C2(C)C ... 16
COC(=O)C1=C(C)NC(C)=C(C(=O)OCCCN2CCC(c3ccccc3)(c3ccccc3)CC2)[C@H]1c1cccc([N+](=O)[O-])c1 ... 79

Quick one: Population Pyknosed Nuclei (%) for O=C(c1cc2c(cc1F)OC(c1ccc(F)cc1)(c1ccc(Cl)cc1Cl)O2)N1CCOCC1 (centres undefined) ? 72

Quick one: Population Pyknosed Nuclei (%) for CC(C)NC(=O)N1CC[C@H](NC2=Nc3cc(F)ccc3N(CC(F)F)c3ccc(Cl)cc32)C1 ? 37
